Experiment: Toxicity in Plasmodium berghei infected ICR mice (Mus musculus) dosed intraperitoneally once daily for 4 days by Thompson test
Type: organism-based
Details: in vivo, ip
Binning scheme for MTD at 96 h: LOW = under 100 mg/kg, MEDIUM = from 100 mg/kg up to 300 mg/kg, HIGH = 300 mg/kg and over

CCN(CC)CCCC(C)Nc1ccnc2cc(Cl)ccc12 (stereo not given) [CHLOROQUINE]	MEDIUM
CC(C)(C)c1cccc2ncn(CC(=O)C[C@H]3NCC[C@@H]3O)c(=O)c12	HIGH
O=C(C[C@@H]1NCCC[C@H]1O)Cn1cnc2ccccc2c1=O [FEBRIFUGINE]	LOW
O=C(C[C@H]1NCC[C@@H]1O)Cn1cnc2ccc(C(F)(F)F)cc2c1=O	HIGH
O=C(C[C@H]1NCC[C@@H]1O)Cn1cnc2ccccc2c1=O	MEDIUM
O=C(C[C@H]1NCC[C@@H]1O)Cn1cnc2cccc(F)c2c1=O	HIGH
COc1cccc2c(=O)n(CC(=O)C[C@H]3NCC[C@@H]3O)cnc12	LOW
O=C(C[C@H]1NCC[C@@H]1O)Cn1cnc2cccnc2c1=O	HIGH
O=C(C[C@H]1NCC[C@@H]1O)Cn1cnc2cnccc2c1=O	HIGH

----------
Experiment: Toxicity in Plasmodium berghei infected ICR mice (Mus musculus) dosed intraperitoneally once daily for 4 days by Thompson test
Format: organism-based
Details: in vivo, ip
measuredQuantity: MTD at 96 h

O=C(C[C@H]1NCC[C@@H]1O)Cn1cnc2ccc(F)cc2c1=O	425 mg/kg
O=C(C[C@H]1NCC[C@@H]1OCc1ccccc1)Cn1cnc2cccc(C(F)(F)F)c2c1=O	88 mg/kg
O=C(C[C@H]1NCC[C@@H]1O)Cn1cnc2ncccc2c1=O	439 mg/kg
COc1ccc2c(=O)n(CC(=O)C[C@H]3NCC[C@@H]3O)cnc2c1	55 mg/kg
O=C(C[C@H]1NCC[C@@H]1O)Cn1cnc2ccncc2c1=O	310 mg/kg
O=C(C[C@H]1NCC[C@@H]1O)Cn1cnc2ccc(F)c(F)c2c1=O	379 mg/kg
CC(C)(C)c1ccc2ncn(CC(=O)C[C@H]3NCC[C@@H]3O)c(=O)c2c1	504 mg/kg
O=C(C[C@H]1NCC[C@@H]1O)Cn1cnc2cccc(C(F)(F)F)c2c1=O	335 mg/kg

----------
Test: Therapeutic index, ratio of MTD for Plasmodium berghei infected ICR mice (Mus musculus) to MCD for Plasmodium berghei
Details: read-out: TI
# if measured selectivity ratio < 60: criterion met  # else: criterion not met

CC(C)(C)c1ccc2ncn(CC(=O)C[C@H]3NCC[C@@H]3O)c(=O)c2c1	criterion met
O=C(C[C@H]1NCC[C@@H]1O)Cn1cnc2ncccc2c1=O	criterion not met
O=C(C[C@H]1NCC[C@@H]1OCc1ccccc1)Cn1cnc2cccnc2c1=O	criterion not met
O=C(C[C@H]1NCC[C@@H]1O)Cn1cnc2ccc(F)c(F)c2c1=O	criterion met
O=C(C[C@H]1NCC[C@@H]1O)Cn1cnc2cccc(F)c2c1=O	criterion met
COc1ccc2c(=O)n(CC(=O)C[C@H]3NCC[C@@H]3O)cnc2c1	criterion met
O=C(C[C@H]1NCC[C@@H]1O)Cn1cnc2ccccc2c1=O	criterion met

----------
Experiment: Therapeutic index, ratio of MTD for Plasmodium berghei infected ICR mice (Mus musculus) to MCD for Plasmodium berghei
Conditions: read-out: TI
measuredQuantity: selectivity ratio

O=C(C[C@H]1NCC[C@@H]1O)Cn1cnc2cccc(C(F)(F)F)c2c1=O	71
O=C(C[C@H]1NCC[C@@H]1O)Cn1cnc2ccc(C(F)(F)F)cc2c1=O	56
O=C(C[C@H]1NCC[C@@H]1O)Cn1cnc2cnccc2c1=O	51
O=C(C[C@@H]1NCCC[C@H]1O)Cn1cnc2ccccc2c1=O	3
O=C(C[C@H]1NCC[C@@H]1O)Cn1cnc2ccncc2c1=O	107
COc1cccc2c(=O)n(CC(=O)C[C@H]3NCC[C@@H]3O)cnc12	10
O=C(C[C@H]1NCC[C@@H]1O)Cn1cnc2cccnc2c1=O	111
O=C(C[C@H]1NCC[C@@H]1OCc1ccccc1)Cn1cnc2cccc(C(F)(F)F)c2c1=O	128
O=C(C[C@H]1NCC[C@@H]1O)Cn1cnc2ccc(F)cc2c1=O	63
CC(C)(C)c1cccc2ncn(CC(=O)C[C@H]3NCC[C@@H]3O)c(=O)c12	11

----------
System: Plasmodium falciparum
Experiment: Antiplasmodial activity after 48 hrs against chloroquine-resistant Plasmodium falciparum W2 in human erythrocytes by [3H]hypoxanthine uptake
Assay type: functional, organism-based
measuredQuantity: IC50 (ng/mL)

O=C(C[C@H]1NCC[C@@H]1O)Cn1cnc2cccc(C(F)(F)F)c2c1=O	0.23
O=C(C[C@H]1NCC[C@@H]1O)Cn1cnc2ccncc2c1=O	0.14
O=C(C[C@H]1NCC[C@@H]1O)Cn1cnc2ccccc2c1=O	0.56
O=C(C[C@H]1NCC[C@@H]1OCc1ccccc1)Cn1cnc2cccnc2c1=O	0.14
O=C(C[C@H]1NCC[C@@H]1O)Cn1cnc2ccc(C(F)(F)F)cc2c1=O	0.28
COc1ccc2c(=O)n(CC(=O)C[C@H]3NCC[C@@H]3O)cnc2c1	0.62
COc1cccc2c(=O)n(CC(=O)C[C@H]3NCC[C@@H]3O)cnc12	0.57
O=C(C[C@@H]1NCCC[C@H]1O)Cn1cnc2ccccc2c1=O	0.76
O=C(C[C@H]1NCC[C@@H]1OCc1ccccc1)Cn1cnc2cccc(C(F)(F)F)c2c1=O	0.19
O=C(C[C@H]1NCC[C@@H]1O)Cn1cnc2ccc(F)c(F)c2c1=O	0.4
O=C(C[C@H]1NCC[C@@H]1O)Cn1cnc2cccc(F)c2c1=O	0.29
CC(C)(C)c1cccc2ncn(CC(=O)C[C@H]3NCC[C@@H]3O)c(=O)c12	2.9
CC(C)(C)c1ccc2ncn(CC(=O)C[C@H]3NCC[C@@H]3O)c(=O)c2c1	3.4
O=C(C[C@H]1NCC[C@@H]1O)Cn1cnc2cnccc2c1=O	0.31
O=C(C[C@H]1NCC[C@@H]1O)Cn1cnc2ccc(F)cc2c1=O	0.26
O=C(C[C@H]1NCC[C@@H]1O)Cn1cnc2ncccc2c1=O	0.34
O=C(C[C@H]1NCC[C@@H]1O)Cn1cnc2cccnc2c1=O	0.12
